Just for reference, patent US6608058B2 is where these values come from.

// values below are reported Inhibitory activity on HBV-RT (%)
Tested on: HBV polymerase
Assay: Inhibitory effect on the in vitro activities of HBV polymerase in reverse transcription (ELISA-type)
Type: biochemical
Settings: 1 μg/ml

| cpd.smiles | units.label | Inhibitory activity on HBV-RT (%) |
| --- | --- | --- |
| Cc1ccc(C(=O)NC(C)C)c(Nc2ccc3[nH]ncc3c2)n1 | % | 78 |
| Cc1ccc(C(=O)NCCN2CCCCC2)c(Nc2ccc3cn[nH]c3c2)n1 | % | 87 |
| CCN(CC)CCNC(=O)c1ccc(C)nc1Nc1ccc2cn[nH]c2c1 | % | 54 |
| Cc1ccc(C(=O)NCc2cccnc2)c(Nc2ccc3[nH]ncc3c2)n1 | % | 65 |
| Cc1ccc(C(=O)NN2CCN(C)CC2)c(Nc2ccc3cn[nH]c3c2)n1 | % | 86 |
| Cc1ccc(C(=O)NC(C)C)c(Nc2ccc3cn[nH]c3c2)n1 | % | 78 |
| Cc1ccc(C(=O)N2CCOCC2)c(Nc2ccc3cn[nH]c3c2)n1 | % | 62 |
| Cc1ccc(C(=O)NCCO)c(Nc2ccc3cn[nH]c3c2)n1 | % | 89 |
| Cc1ccc(C(=O)N(N)C(=O)c2cccnc2)c(Nc2ccc3cn[nH]c3c2)n1 | % | 85 |
